Hi there, I'd appreciate the recorded molar heat capacity at constant pressure for every entry that follows.
Assay: molar heat capacity at constant pressure
Conditions: 313.15 K; 101.33 kPa; Crystal
One number for each entry, in J/K/mol.

>>> result("Cc1nc(O)nc(O)c1C [2,4-dihydroxy-5,6-dimethylpyrimidine]")
208

Dear colleague, could you please provide molar heat capacity at constant pressure for the compounds listed below?
1. O=c1[nH]cc(Br)c(=O)[nH]1 [5-bromouracil]
2. Cc1cc(=O)n(C)c(=O)[nH]1 [3,6-dimethyluracil]
3. CCc1cc(=O)n(C)c(=O)n1C [2,4(1H,3H)-pyrimidinedione, 6-ethyl-1,3-dimethyl-]

*A*
[151, 193.5, 246.3]

Provide the reported molar heat capacity at constant pressure of each entry below, same order.
1. O=[N+]([O-])c1cnc(O)nc1O [2,4-pyrimidinedione, 5-nitro-]
2. Cn1c2c(c(=O)n(C)c1=O)CCCC2 [1,3-dimethyl-5,6,7,8-tetrahydroquinazoline-2,4(1H,3H)-dione]
3. CCCc1cc(=O)n(C)c(=O)n1C [2,4(1H,3H)-pyrimidinedione, 1,3-dimethyl-6-propyl-]

*A*
169.9
305.8
292.2
